Test: Primary qHTS for delayed death inhibitors of the malarial parasite plastid, 96 hour incubation; note: potency is the fitted concentration of half-maximal effect
Conditions: P. falciparum luciferase reporter growth; series mostly up to 28.7 µM
From the text: The goal of this screen is to discover new antimalarial compounds that act by inhibiting the development of the apicoplast in the malarial parasite Plasmodium falciparum. […] We have developed a cell-based assay that measures parasite growth based on the expression of an integrated copy of a firefly luciferase reporter. […] Growth inhibition is detected by a decrease in luciferase activity. […]
The whole screen tested about 320,000 compounds, of which about 22,000 (6.9%) were called active. About 27% were inconclusive and are not listed. Many of the other results were omitted from the sample, so actives are more common in it than they were.

{"Compound": "COc1ccc(NC(=O)CCC(=O)Nc2cc(OC)c(NC(=O)c3ccco3)cc2OC)c(OC)c1", "Potency": "inactive"}
{"Compound": "CCn1c(=S)sc2c(=O)n(CC(=O)Nc3ccc(OC)cc3)c(C)nc21", "Potency": "inactive"}
{"Compound": "Cc1cc(C(=O)CSc2nc(N)cc(=O)[nH]2)c(C)n1Cc1ccco1", "Potency": "inactive"}
{"Compound": "CCn1c(SCC(=O)Nc2cc(C)c(Cl)cc2OC)nnc1-c1ccco1", "Potency": "inactive"}
{"Compound": "COc1cc(NC(=O)c2ccc(-c3csc(C)n3)cc2)c(OC)cc1Cl", "Potency": "4.15 µM (active)"}
{"Compound": "O=C(Nc1ccccc1)Nc1ccc(C(F)(F)F)cn1", "Potency": "inactive"}
{"Compound": "O=S(=O)(Oc1ccccc1C(=S)N1CCOCC1)c1ccc(Cl)cc1", "Potency": "inactive"}
{"Compound": "COc1cc2c(cc1O)[C@H](Cc1ccc(Oc3cc(C[C@@H]4NCCc5cc(OC)c(O)cc54)ccc3O)cc1)NCC2", "Potency": "0.415 µM (active)"}
{"Compound": "COc1ccccc1NC(=O)CSc1nnc(C)n1CC1CCCO1 (stereo unspecified)", "Potency": "inactive"}
{"Compound": "COc1cccc(CC(=O)Nc2ccc(-c3csc(C)n3)cc2)c1", "Potency": "inactive"}
{"Compound": "COc1ccc(NC(=O)CSc2ccc(-c3ccco3)nn2)c(OC)c1", "Potency": "14.7 µM (active)"}
